Tested on: UACC-62 melanoma
Experiment: NCI-60 one-dose screen, 48 h (100 = growth as untreated, 0 = no growth, -100 = all killed)
Conditions: 10 µM
About 83,000 compounds went through this panel and 20% of them were active in at least one assay; those are over-represented in the sample as a whole.
recorded-metric: growth (%)

INSERT INTO assay_data (molecule, test_target, recorded_metric, experimental_result) VALUES
  ('COc1ccc2nc3cc(Cl)ccc3c(N)c2c1', 'UACC-62 melanoma', 'growth', -96.4),
  ('CCOC(=O)c1cc(C(=O)c2cc(OC)cc(OC)c2)n2ncc3ccccc3c12', 'UACC-62 melanoma', 'growth', 41.7),
  ('COc1ccc(-c2cc(-c3ccc(Cl)cc3)nc(SCCCC(=O)NO)n2)cc1OC', 'UACC-62 melanoma', 'growth', -60.1),
  ('Cc1cc(=O)n2nnc3cc(C(F)(F)F)ccc3n12', 'UACC-62 melanoma', 'growth', 102),
  ('N#Cc1c(N)nc(-c2cc(F)cc(C(F)(F)F)c2)nc1-c1ccccc1F', 'UACC-62 melanoma', 'growth', 84),
  ('O=C(Nc1ccccc1)Nc1ncnc2c1ncn2-c1ccccc1', 'UACC-62 melanoma', 'growth', 91.8),
  ('CCOC(=O)c1cc(C(=O)c2cc(OC)c(OC)c(OC)c2)n2c1ccc1c3cccnc3ccc12', 'UACC-62 melanoma', 'growth', 57.5),
  ('CC(C)c1ccc(C(C)C(=O)N(CC2=C(C(C)c3ccccn3)c3ccccc3C2)C(C)C)cc1 (stereo unspecified)', 'UACC-62 melanoma', 'growth', 53.4),
  ('O=C(CCC(C(=O)c1ccccc1)c1ccccc1)c1ccccc1 (stereo unspecified)', 'UACC-62 melanoma', 'growth', 63),
  ('C1CN(CC2CCC(CN3CCOCC3)O2)CCO1 (stereo unspecified)', 'UACC-62 melanoma', 'growth', 106),
  ('CCC(CC)n1c(C)cc(=O)n1C(CC)CC', 'UACC-62 melanoma', 'growth', 101),
  ('CCCCN(CCCC)C(=O)[C@H](CC)[C@@H]1CC[C@@H](C)[C@@H]([C@H](C)[C@@H](O)[C@@H](C)C(=O)[C@H](CC)C2O[C@]3(C=CC(=O)[C@]4(CC[C@@](C)([C@H]5CC[C@](O)(CC)[C@H](C)O5)O4)O3)[C@H](C)C[C@@H]2C)O1 (stereo partly specified)', 'UACC-62 melanoma', 'growth', 22.5),
  ('O=C(CCCCCCC(=O)Nc1ccccc1)NO', 'UACC-62 melanoma', 'growth', -42.8),
  ('Cc1ccc(Cl)cc1NC(=O)CCl', 'UACC-62 melanoma', 'growth', 66.3),
  ('Cc1cn(-c2cccc(NC(=O)c3ccc(C)c(Nc4nccc(-c5cccnc5)n4)c3)c2)cn1', 'UACC-62 melanoma', 'growth', 3.99),
  ('COc1cc2c3c(n([C@@H]4CCOC4)c(=O)c2cc1OC)-c1cc2c(cc1C3=O)OCO2', 'UACC-62 melanoma', 'growth', 3.12),
  ('Nc1nc(Cn2c(-c3nonc3N)nc3ccccc32)nc(N2CCCCC2)n1', 'UACC-62 melanoma', 'growth', 84.3),
  ('CN1CCc2c(sc3nc4n(-c5ccc(Cl)cc5)cnn4c(=O)c23)C1', 'UACC-62 melanoma', 'growth', 102),
  ('COc1cc(/C=C/c2cc(/C=C/c3ccc(O)c(OC)c3)n(C(=O)Nc3ccccc3Cl)n2)ccc1O', 'UACC-62 melanoma', 'growth', 1.04),
  ('CC(C)CCN(CCC(C)C)CC(=O)Nc1ccc(S(=O)(=O)c2ccc(NC(=O)CN(CCC(C)C)CCC(C)C)cc2)cc1', 'UACC-62 melanoma', 'growth', 29.7),
  ('Cc1cc(=O)n2nnc3cc(Cl)c(Cl)cc3n12', 'UACC-62 melanoma', 'growth', 106);
